- experimental_system: Protein ENL (Homo sapiens)
- Sequence (Q03111 whole entry): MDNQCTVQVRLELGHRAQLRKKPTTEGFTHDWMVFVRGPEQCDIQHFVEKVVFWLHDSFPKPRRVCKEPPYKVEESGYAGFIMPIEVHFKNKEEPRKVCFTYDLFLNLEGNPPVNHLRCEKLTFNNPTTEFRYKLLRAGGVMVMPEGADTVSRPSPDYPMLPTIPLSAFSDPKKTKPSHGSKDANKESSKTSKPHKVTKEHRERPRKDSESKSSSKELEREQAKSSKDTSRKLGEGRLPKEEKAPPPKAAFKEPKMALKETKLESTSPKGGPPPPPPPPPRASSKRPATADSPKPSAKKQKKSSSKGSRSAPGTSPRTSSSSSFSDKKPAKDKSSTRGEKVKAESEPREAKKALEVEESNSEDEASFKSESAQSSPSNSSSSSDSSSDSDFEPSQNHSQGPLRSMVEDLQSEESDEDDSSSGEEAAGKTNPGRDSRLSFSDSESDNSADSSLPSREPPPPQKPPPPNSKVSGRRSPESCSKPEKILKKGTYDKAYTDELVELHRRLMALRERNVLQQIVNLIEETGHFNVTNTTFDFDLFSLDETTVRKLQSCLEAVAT
Square brackets hold non-standard residues; d marks the D form. Peptide text beside a SMILES is read from it. * marks the point of attachment. X2 = CC(C)n1cc(-c2ccccc2)nc1[C@@H]1CCCN1*; 2Nal = N[C@@H](Cc1ccc2ccccc2c1)C(=O)O; X4 = Cn1cc(-c2ccccc2)nc1[C@@H]1CCCN1*; Ala(cPent) = N[C@@H](CC1CCCC1)C(=O)O; Dap = NC[C@H](N)C(=O)O
Listing of recorded Ki by entry.

compound	Ki
CC[C@H](C)[C@H](NC(=O)[C@@H]1CCCN1C(=O)[C@H](CC(C)C)NC(C)=O)C(=O)N[C@@H](CO)C(=O)N[C@@H](CC(C)C)C(=O)N1CCC[C@H]1C(=O)N[C@@H](CC(C)C)C(=O)N(C)C (Ac-LPISLPL-NMe2)	6.29 µM
CC(=O)N[C@@H](CC(C)C)C(=O)N1CCC[C@H]1C(=O)N[C@H](C(=O)N[C@@H](CN)C(=O)N[C@@H](CC1CCCC1)C(=O)N1CCC[C@H]1c1nc(-c2ccccc2)cn1C(C)C)C(C)C (Ac-LPV[Dap][Ala(cPent)]-X2)	0.287 µM
CC[C@H](C)[C@H](NC(=O)[C@@H]1CCCN1C(=O)[C@H](CC(C)C)NC(C)=O)C(=O)N[C@@H](CO)C(=O)N[C@@H](Cc1ccc2ccccc2c1)C(=O)N1CCC[C@H]1C(=O)N[C@@H](CC(C)C)C(=O)N(C)C (Ac-LPIS[2Nal]PL-NMe2)	14.6 µM
CC(=O)N[C@@H](CC(C)C)C(=O)N1CCC[C@H]1C(=O)N[C@H](C(=O)N[C@@H](CN)C(=O)N[C@@H](CC1CCCC1)C(=O)N1CCC[C@H]1c1nc(-c2ccccc2)cn1C)C(C)C (Ac-LPV[Dap][Ala(cPent)]-X4)	0.417 µM
